- target or test system: T1, Recombinant HMGB1 (Calmodulin Binding Protein Epitope, Cbp tagged) (UniProt P09429 1-215)
- T1 construct: high-mobility group box-1 protein (HMGB1), recombinant; The reagents also list 'reduced HMGB1'; also called high-mobility group box-1
- T1 sequence (looked up): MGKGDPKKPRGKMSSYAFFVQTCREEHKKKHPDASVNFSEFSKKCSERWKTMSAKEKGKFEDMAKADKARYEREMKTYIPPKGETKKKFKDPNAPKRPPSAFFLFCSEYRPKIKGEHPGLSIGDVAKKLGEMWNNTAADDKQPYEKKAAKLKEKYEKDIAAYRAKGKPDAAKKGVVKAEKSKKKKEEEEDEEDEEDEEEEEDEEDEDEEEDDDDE
- assay explanation: SPR; Biacore T200; HMGB1 amine-coupled to a CM5 chip (~600 RU); peptide injected at 16-250 μM, 20 μL/min, 120 s, 25°C; 1:1 binding assumed; apparent KD
- details: both partners purified
pKd: −log10 of the molar value.
recorded endpoint: pKd

INSERT INTO measurements (binder, recorded_endpoint, test_result) VALUES
  ('DWEYS (the biotinylated form may have been used there; also called pentapeptide DWEYS; DNA mimetope; source: synthetic peptide (GenScript)) [DWEYS peptide]', 'pKd', 3.73);
